# binding signal annotations
- testTarget: HNF4alpha8 (COS-7 nuclear extract) (Homo sapiens, UniProt P41235-5 1-452)
- Sequence: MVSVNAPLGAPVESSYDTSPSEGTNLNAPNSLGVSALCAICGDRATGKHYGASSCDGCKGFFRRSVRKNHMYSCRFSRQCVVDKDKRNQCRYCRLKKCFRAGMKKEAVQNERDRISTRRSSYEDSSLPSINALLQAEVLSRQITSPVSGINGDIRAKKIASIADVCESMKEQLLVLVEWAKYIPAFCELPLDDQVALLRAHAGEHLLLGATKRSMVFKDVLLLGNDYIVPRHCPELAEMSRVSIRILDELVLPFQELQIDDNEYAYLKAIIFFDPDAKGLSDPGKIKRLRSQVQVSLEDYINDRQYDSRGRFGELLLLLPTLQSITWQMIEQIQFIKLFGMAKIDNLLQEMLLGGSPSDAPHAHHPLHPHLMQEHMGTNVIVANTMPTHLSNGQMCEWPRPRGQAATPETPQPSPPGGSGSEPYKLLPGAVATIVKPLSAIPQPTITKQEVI
- protocolDescription: protein-binding microarray; COS-7 nuclear extract on double-stranded Agilent 4x180k PBM; binding buffer, salt, pH and temperature not given in the material; high values mean tight binding
- assaySetup: chain copies: 2; label: 3' end of strand 1 on the slide; dsDNA, one strand shown
Whole data set: some 18,000 sequences, median “log2 normalized intensity” near 0.36, cut for the highest 2% near 7.3. This is one part of a sample in which the highest values are shown more often than they occur.
reportedMetric: binding signal (log2 normalized intensity)

                             orderedresidues                                testtarget  reportedmetric  measurement
 0  AAATCCCCGCCTTTGACACAGGCGACCTTCGCCTAGGGAGATTAGAGTATCGGTCGA  HNF4alpha8 (COS-7 nuclear extract) (Homo sapiens, UniProt P41235-5 1-452)  binding signal         4.58
 1  GAGGTCTGGACCCTTGGCACTTTCACGATAGCCTAGGGAGATTAGAGTATCGGTCGA  HNF4alpha8 (COS-7 nuclear extract) (Homo sapiens, UniProt P41235-5 1-452)  binding signal         1.79
 2  TCAGGCACAGCTCGACCTTTGACCTTCGGCGCCTAGGGAGATTAGAGTATCGGTCGA  HNF4alpha8 (COS-7 nuclear extract) (Homo sapiens, UniProt P41235-5 1-452)  binding signal         10.9
 3  GCATGGCTCAGTCCAAGTCCAAAGGTCTGAGCCTAGGGAGATTAGAGTATCGGTCGA  HNF4alpha8 (COS-7 nuclear extract) (Homo sapiens, UniProt P41235-5 1-452)  binding signal         6.28
 4  TTTGTCCCCCACCTGTGAAGATAAGCTGTCGCCTAGGGAGATTAGAGTATCGGTCGA  HNF4alpha8 (COS-7 nuclear extract) (Homo sapiens, UniProt P41235-5 1-452)  binding signal         3.17
 5  TCCAGAATTGTGTGGTTATCTGTTGGGGAAGCCTAGGGAGATTAGAGTATCGGTCGA  HNF4alpha8 (COS-7 nuclear extract) (Homo sapiens, UniProt P41235-5 1-452)  binding signal         2.14
 6  AAAGCCATCAGCACTGGTTCAAAGTGTAGCGCCTAGGGAGATTAGAGTATCGGTCGA  HNF4alpha8 (COS-7 nuclear extract) (Homo sapiens, UniProt P41235-5 1-452)  binding signal         1.25
 7  TCAAAGTCCAAATAGCGCTAACTCTATATCGCCTAGGGAGATTAGAGTATCGGTCGA  HNF4alpha8 (COS-7 nuclear extract) (Homo sapiens, UniProt P41235-5 1-452)  binding signal        0.779
 8  CCCGCCTTTGACACAGGCGACCTTCGCTCGGCCTAGGGAGATTAGAGTATCGGTCGA  HNF4alpha8 (COS-7 nuclear extract) (Homo sapiens, UniProt P41235-5 1-452)  binding signal         6.06
 9  ACCCAGGTGTGTTGCAACTTTGACTATAGCGCCTAGGGAGATTAGAGTATCGGTCGA  HNF4alpha8 (COS-7 nuclear extract) (Homo sapiens, UniProt P41235-5 1-452)  binding signal        0.342
10  ACTCAGGCATTCTGACCTTTGTCTCCAGGCGCCTAGGGAGATTAGAGTATCGGTCGA  HNF4alpha8 (COS-7 nuclear extract) (Homo sapiens, UniProt P41235-5 1-452)  binding signal         6.52
11  CCATATCACATTTTAAGGTCTGGCATTCTTGCCTAGGGAGATTAGAGTATCGGTCGA  HNF4alpha8 (COS-7 nuclear extract) (Homo sapiens, UniProt P41235-5 1-452)  binding signal          1.1
12  GGCTAGACTTTAACCCCCTTGTCTTCCTCAGCCTAGGGAGATTAGAGTATCGGTCGA  HNF4alpha8 (COS-7 nuclear extract) (Homo sapiens, UniProt P41235-5 1-452)  binding signal         4.16
13  GATTGACTCAGGCATTCTGACCTTTGTCTCGCCTAGGGAGATTAGAGTATCGGTCGA  HNF4alpha8 (COS-7 nuclear extract) (Homo sapiens, UniProt P41235-5 1-452)  binding signal         7.94
14  CCTTTGACCTTCGGCTTCCCCAGAGAAAGAGCCTAGGGAGATTAGAGTATCGGTCGA  HNF4alpha8 (COS-7 nuclear extract) (Homo sapiens, UniProt P41235-5 1-452)  binding signal         3.38
15  CACAGCTCGACCTTTGACCTTCGGCTTCCCGCCTAGGGAGATTAGAGTATCGGTCGA  HNF4alpha8 (COS-7 nuclear extract) (Homo sapiens, UniProt P41235-5 1-452)  binding signal         9.06
16  GAAAGGATCTCACCCAAACCATCCCAGGCAGCCTAGGGAGATTAGAGTATCGGTCGA  HNF4alpha8 (COS-7 nuclear extract) (Homo sapiens, UniProt P41235-5 1-452)  binding signal          3.1
17  ATCTTATCAGCAAGGGCATTTGCGTAGGCTGCCTAGGGAGATTAGAGTATCGGTCGA  HNF4alpha8 (COS-7 nuclear extract) (Homo sapiens, UniProt P41235-5 1-452)  binding signal       -0.794
18  AAAGTCCAACACAGAAGCCTTTTGTTCTTTGCCTAGGGAGATTAGAGTATCGGTCGA  HNF4alpha8 (COS-7 nuclear extract) (Homo sapiens, UniProt P41235-5 1-452)  binding signal         2.15
